Molecular target: Mer (Homo sapiens (Human))
Sequence (Q12866 557-882): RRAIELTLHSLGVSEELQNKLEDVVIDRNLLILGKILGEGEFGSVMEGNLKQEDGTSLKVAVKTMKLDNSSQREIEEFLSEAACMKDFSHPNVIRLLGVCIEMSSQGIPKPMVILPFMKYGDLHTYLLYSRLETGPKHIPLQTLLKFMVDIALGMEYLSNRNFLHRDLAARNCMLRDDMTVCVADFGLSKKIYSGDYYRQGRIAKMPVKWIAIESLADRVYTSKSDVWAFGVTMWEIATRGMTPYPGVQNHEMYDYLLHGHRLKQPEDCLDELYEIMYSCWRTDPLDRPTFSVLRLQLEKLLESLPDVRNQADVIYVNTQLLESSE
Assay: Human Mer kinase assay (33P radiometric, KinaseProfiler)
Format: biochemical
Settings: 10 μM ATP
Experimental: Kinase activity and compound inhibition were investigated using the ^33P-Phosphoryl transfer radiometric kinase assay, performed using the KinaseProfiler™ service of Eurofins Pharma Discovery Services UK Limited. Dose-response experiments were performed using nine compound concentrations in a 96-well microtiter plate. […] IC50 values were calculated by nonlinear regression analysis using the sigmoidal dose-response (variable slope) curve fit on XLFit version 5.3 (ID Business Solutions). […]
Listed here: items and their measured IC50.

smiles.repr: O=C(Nc1ccc(F)cc1)C1(C(=O)Nc2ccc(Oc3ncnc4cc5c(nc34)CCCC5)cc2)CC1
system.name: Mer (Homo sapiens (Human))
IC50: 100 to 1000 nM
//
smiles.repr: COc1cc2ncnc(Oc3ccc(NC(=O)C4(C(=O)Nc5ccc(F)cc5)CC4)cc3)c2cc1C(=O)NC[C@@H]1CCCN1
system.name: Mer (Homo sapiens (Human))
IC50: ≤ 10 nM

Exercise: Any idea what IC50 came out for COc1cc2ncnc(Oc3ccc(NC(=O)C4(C(=O)Nc5ccc(F)cc5)CC4)cc3)c2cc1C(=O)NC1CC1 on Mer (Homo sapiens (Human))?
Solution: 10 to 100 nM

Exercise: Form field - read-out: IC50; system: Mer (Homo sapiens (Human)); submitted item: COc1cc2ncnc(Oc3ccc(NC(=O)C4(C(=O)Nc5ccc(F)cc5)CC4)cc3)c2nc1OC
Solution: ≤ 10 nM

Exercise: Value wanted: IC50 (Mer (Homo sapiens (Human))) of entry COc1cc2ncnc(Oc3ccc(NC(=O)C4(C(=O)Nc5ccc(F)cc5)CC4)cc3)c2cc1C(=O)NC[C@H]1CCCN1
Solution: ≤ 10 nM

Exercise: Query the reported IC50 for Mer (Homo sapiens (Human)); item: COc1cc2ncnc(Oc3ccc(NC(=O)C4(C(=O)Nc5ccc(F)cc5)CC4)cc3)c2cc1C(N)=O
Solution: ≤ 10 nM

Exercise: What measured IC50 is associated with O=C(Nc1ccc(F)cc1)C1(C(=O)Nc2ccc(Oc3ncnc4cccnc34)cc2)CC1 on Mer (Homo sapiens (Human))?
Solution: > 1000 nM

Exercise: Give IC50 (Mer (Homo sapiens (Human))) of the following compound: O=C(Nc1ccc(F)cc1)C1(C(=O)Nc2ccc(Oc3ncnc4cc(Cl)cnc34)cc2)CC1
Solution: 100 to 1000 nM

Exercise: Query the reported IC50 for Mer (Homo sapiens (Human)); item: O=C(Nc1ccc(F)cc1)C1(C(=O)Nc2ccc(Oc3ncnc4cnccc34)cc2)CC1
Solution: 100 to 1000 nM

Exercise: Tell me reported IC50 for COc1cc2nccc(Oc3ccc(NC(=O)C4(C(=O)Nc5ccc(F)cc5)CC4)cc3)c2nc1OC , tested with Mer (Homo sapiens (Human)).
Solution: ≤ 10 nM

Exercise: Notebook: pull reported IC50 for Mer (Homo sapiens (Human)), entry COc1nc2c(Oc3ccc(NC(=O)C4(C(=O)Nc5ccc(F)cc5)CC4)cc3F)ncnc2cc1OCCCN1CCOCC1
Solution: ≤ 10 nM
